Values were extracted from patent US20260193293A1.

Measured Ki of individual entries
Target: Sushi domains (SD1/2) protein
Test: Fluorescence polarization (FP) competition assay with AJAP-1probe, calculated Ki
Assay type: binding
Conditions: Table 7, Ala-, D-amino acids and N-methylation scans of APPWT; read-out: Ki (nM) mean ± SEM
Non-standard residues stand in square brackets, D forms with d. Residues, ends and D or L forms follow the SMILES beside them. NMeV = CN[C@H](C(=O)O)C(C)C; NMeS = CN[C@@H](CO)C(=O)O

Guide cases for Ki, answers given:
Compound: CC(=O)N[C@@H](CCC(=O)O)C(=O)N[C@@H](CC(=O)O)C(=O)N[C@@H](CC(=O)O)C(=O)N(C)[C@@H](CO)C(=O)N[C@@H](CC(=O)O)C(=O)N[C@H](C(=O)N[C@@H](Cc1c[nH]c2ccccc12)C(=O)N[C@@H](Cc1c[nH]c2ccccc12)C(=O)NCC(=O)NCC(=O)N[C@@H](C)C(=O)N[C@@H](CC(=O)O)C(=O)N[C@H](C(=O)N[C@@H](CC(=O)O)C(N)=O)[C@@H](C)O)C(C)C (Ac-EDD[NMeS]DVWWGGADTD-NH2)
Ki: 1670 nM
--
Compound: CC(=O)N[C@@H](CCC(=O)O)C(=O)N[C@@H](CC(=O)O)C(=O)N[C@@H](CC(=O)O)C(=O)N[C@@H](CO)C(=O)N[C@@H](CC(=O)O)C(=O)N(C)[C@H](C(=O)N[C@@H](Cc1c[nH]c2ccccc12)C(=O)N[C@@H](Cc1c[nH]c2ccccc12)C(=O)NCC(=O)NCC(=O)N[C@@H](C)C(=O)N[C@@H](CC(=O)O)C(=O)N[C@H](C(=O)N[C@@H](CC(=O)O)C(N)=O)[C@@H](C)O)C(C)C (Ac-EDDSD[NMeV]WWGGADTD-NH2)
Ki: 12300 nM

// moving on: another record for Ki
Data request: Item CC(=O)N[C@@H](CCC(=O)O)C(=O)N[C@@H](CC(=O)O)C(=O)N[C@@H](CC(=O)O)C(=O)N[C@@H](CO)C(=O)N[C@@H](CC(=O)O)C(=O)N[C@H](C(=O)N[C@@H](C)C(=O)N[C@@H](Cc1c[nH]c2ccccc12)C(=O)NCC(=O)NCC(=O)N[C@@H](C)C(=O)N[C@@H](CC(=O)O)C(=O)N[C@H](C(=O)N[C@@H](CC(=O)O)C(N)=O)[C@@H](C)O)C(C)C (Ac-EDDSDVAWGGADTD-NH2) has what recorded Ki?
Data returned: 8790 nM
